# maps each entry to its Fold off-rate compared to g7B07
experimentalSystem: T1, human Gal10-His (human, UniProt Q05315 2-142, limits assumed)
T1 construct: also called hGal10-His; human Gal10-His tagged; not shown: His tag
T1 sequence: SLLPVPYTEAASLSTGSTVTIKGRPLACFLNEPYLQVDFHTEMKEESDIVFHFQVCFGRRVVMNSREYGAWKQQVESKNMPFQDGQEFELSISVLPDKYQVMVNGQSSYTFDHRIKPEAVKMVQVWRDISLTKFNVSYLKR
assayMethodText: SPR Biacore 3000, Fab periplasmic extract on Gal10-His-coated CM5
Field: numeric (fold). Do not append units.

g23H09 (Fab) (Fab, V domains shown, same VH/VL) VH: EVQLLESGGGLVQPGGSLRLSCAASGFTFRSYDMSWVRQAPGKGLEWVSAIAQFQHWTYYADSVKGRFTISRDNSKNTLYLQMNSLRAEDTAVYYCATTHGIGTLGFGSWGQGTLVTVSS VL: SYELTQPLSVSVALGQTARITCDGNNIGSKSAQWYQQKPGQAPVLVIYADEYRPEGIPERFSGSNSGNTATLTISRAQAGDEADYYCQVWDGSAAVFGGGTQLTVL	0.4

INPUT: Give a short answer stating reported Fold off-rate compared to g7B07 for g23H11 (Fab, periplasmic extract) (Fab, V domains shown, X6 library; VH assembled by inference) VH: EVQLLESGGGLVQPGGSLRLSCAASGFTFRSYDMSWVRQAPGKGLEWVSAISKMPHLTYYADSVKGRFTISRDNSKNTLYLQMNSLRAEDTAVYYCATTHGIGTLGFGSWGQGTLVTVSS VL: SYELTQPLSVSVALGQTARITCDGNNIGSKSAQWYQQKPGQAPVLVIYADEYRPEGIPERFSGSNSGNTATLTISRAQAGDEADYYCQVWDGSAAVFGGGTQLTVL .
OUTPUT: 3.6

INPUT: Give a short answer stating reported Fold off-rate compared to g7B07 for g21B01 (Fab, periplasmic extract) (Fab, V domains shown, X4 library; VH assembled by inference) VH: EVQLLESGGGLVQPGGSLRLSCAASGFTFRSYDMSWVRQAPGKGLEWVSAISGALTYYADSVKGRFTISRDNSKNTLYLQMNSLRAEDTAVYYCATTHGIGTLGFGSWGQGTLVTVSS VL: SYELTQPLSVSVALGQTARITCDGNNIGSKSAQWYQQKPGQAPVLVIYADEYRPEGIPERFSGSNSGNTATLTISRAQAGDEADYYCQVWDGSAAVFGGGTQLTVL .
OUTPUT: 3.8
